B1: PTPLAD1 (parent)
chain: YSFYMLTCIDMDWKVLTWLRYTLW

Variants of: B1
protocol text: protein stability index of a GFP-peptide fusion (GPS, HEK-293T) (PSI 1-6); higher = more stable;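 note: lentivirally expressed fusions sorted by FACS into six bins by GFP to DsRed ratio, PSI derived from sequencing read proportions per bin multiplied by bin number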
conditions: c terminus: a fixed tail appended
protein stability index of 2 or higher: y. Under 2: n.

Example entries begin here.
sequence input: YSCYMLTCIDMDWKVLTWLRYTLW
class: y

sequence input: YSFYMLTCIVMDWKVLTWLRYTLW
class: y

sequence input: YCFYMLTCIDMDWKVLTWLRYTLW
class: n

sequence input: YSFYMLTSIDMDWKVLTWLRYTLW
class: y

Next up:
Q. Decide: protein stability index of YSFYMLTCIDMDWKVLTWLWYTLW >= 2?
A. n
